Experiment: Hepatocyte stability assay, mouse
Format: in vitro ADME
Conditions: mouse, hepatocytes, Hepatocyte stability T½
Catalogue of half-life at 10 μM readings, one per entry.
Give the quantity in min, number only.

Worked cases, answers included:
molecule="C=C(Cc1nc(C(C)CCCCCC(F)(F)F)no1)C(=O)O (stereo not drawn)" numeric_readout=102
molecule=C=C(Cc1nc(C2(c3ccc(C(F)(F)F)c(Cl)c3)CC2)no1)C(=O)O numeric_readout=16
molecule=C=C(Cc1nc(Cc2ccc(CCCC)cc2)co1)C(=O)O numeric_readout=3
molecule=C=C(Cc1noc(C(F)(F)c2ccc(Cl)cc2)n1)C(=O)O numeric_readout=21
molecule=C=C(Cc1nc(C2(c3ccc(OC(F)(F)F)cc3)CC2)no1)C(=O)O numeric_readout=86
molecule=C=C(Cc1nc(C2(c3ccc(Cl)cc3)CCC2)no1)C(=O)O numeric_readout=90

Now examine the next entry.
Returns the measured half-life at 10 μM for the input molecule. Input: C=C(Cc1nc(C2CC3(C2)CC2(CCC2)C3)no1)C(=O)O 10

Reference source for all entries: patent US12617762B2
